src = patent US20240279318A1

# TESTED ON: T1, AFP158/HLA-A*02:01 complex (human)
# T1 construct: flowed as analyte in SPR
# PROTOCOL NOTES: SPR, crude scFv captured, pMHC analyte;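 note: complex injected at several concentrations over the chip, association phase then running buffer for dissociation, KD derived from on- and off-rates computed from both curves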
In this section, each of the binders is paired with its reported Kd.
Answer in nM, number only, no unit symbol.

{"columns": ["BINDER", "UNIT TEXT", "Kd"],
 "data": [
  ["AS170036 VL1VH1-56Y98Q108S (scFv, also called 48-AS170036 VL1VH1-56Y98Q108S) scFv: QSALTQPRSVSGSPGQSVTISCAGTSSDVGSENYVSWYQQHPGKAPKLMIYQVNKRASGVPDRFSGSKSGNTASLTISGLQAEDEADYYCASYRSSDQNIVFGGGTKLTVLGGGGSGGGGSGGGGSEVQLVESGGGLVQPGGSLRLSCAASGFTFSSYAMSWVRQAPGKGLEWVSTINSGTYSPYYADSVKGRFTISRDNSKNTLYLQMNSLRAEDTAVYYCAKNFFDGSWFLSPPAMDYWGQGTLVTVSSHHHHHH", "nM", 3.3]
]}

Let's switch to this binder now.
Request: Give the measured Kd of AS170036 VL1VH1-57M98F108A (scFv, also called 76-AS170036 VL1VH1-57M98F108A) scFv: QSALTQPRSVSGSPGQSVTISCAGTSSDVGSENYVSWYQQHPGKAPKLMIYQVNKRASGVPDRFSGSKSGNTASLTISGLQAEDEADYYCASYRSSDFNIVFGGGTKLTVLGGGGSGGGGSGGGGSEVQLVESGGGLVQPGGSLRLSCAASGFTFSSYAMSWVRQAPGKGLEWVSTINSGTGMPYYADSVKGRFTISRDNSKNTLYLQMNSLRAEDTAVYYCAKNFFDGSWFLAPPAMDYWGQGTLVTVSSHHHHHH .
Response: 5.2
